Measured values drawn from ChEMBL document CHEMBL1123032 for this set.

Species on record: Mus musculus
Test: Compound was evaluated for antihelminthic activity in the diet against Nematospiroides dubius in mice at a concentration 0.013%
Type: functional
quantity_name: Activity (%)
Hi! Could you send only the number? It should be in %, unit omitted.

Fill in reported Activity for this entry: S=C=Nc1ccc(-c2ncon2)cc1 48

Report measured Activity; entry is CSc1nc(-c2ccccc2)no1 39

Indicate its recorded Activity; the compound in question is CCCCCCCCCCCc1nc(N)no1 8

Please report the measured Activity for c1ccc2[nH]c(-c3cscn3)nc2c1 47

Give the measured Activity for Clc1ccc(-c2ncon2)cc1 36

---

Test: Anthelmintic activity against Nematospiroides dubius when the dose was administered orally in mouse.
Type: functional
Parameters: concentration or dose not given beside the values
Below, each entry is listed alongside its reported Activity.
Could you give me the number in %? Just the number is fine.

Output Activity of S=C=Nc1ccc(-c2nc(-c3ccc(Cl)cc3)no2)cc1 0

Provide Activity value for the following compound: CCc1nc(-c2ccc(N=C=S)cc2)no1 30

Query Activity for O=[N+]([O-])c1ccc(/C=N\c2ccc(-c3ncon3)cc2)o1 0

---

Below, each entry is listed alongside its reported Activity.
Experiment: Anthelmintic activity against Nematospiroides dubius when the dose was administered orally in mouse.
Type: functional
Design: concentration or dose not given beside the values
Respond numerically; units are % and should not be typed.

Past entries and their recorded results:
Nc1cc(-c2nc(-c3ccco3)no2)ccc1Cl    0
O=[N+]([O-])CCc1nc(-c2ccccc2)no1    0
Nc1ccc(-c2nc(-c3ccc(Cl)cc3)no2)cc1    0

Consider the compound Clc1ccc(/C=N/c2ccc(-c3ncon3)cc2)cc1 and give its recorded Activity. 0

In one line, give reported Activity of the entry [O-][n+]1ccc(-c2ncon2)cc1 . 0

Identify measured Activity associated with O=[N+]([O-])c1ccc2ncn(CCc3noc(-c4ccccc4)n3)c2c1 0

Respond only with Activity recorded for O=C(Nc1ccc(-c2nc(-c3ccco3)no2)c(Cl)c1)Oc1ccccc1 0

Please supply the value of reported Activity for the item C(=N/c1ccc(-c2ncon2)cc1)/c1ccc[nH]1 0

Tell me its Activity given S=C=Nc1ccc(-c2ncon2)cc1 as the entry. 100

Output measured Activity for this item: S=C=Nc1ccc(-c2noc(C3CCCCC3)n2)cc1 0

Answer with the recorded Activity for the compound listed here: S=C=Nc1ccc(-c2noc(CCl)n2)cc1 38

Entry S=C=Nc1cccc(-c2noc(-c3ccco3)n2)c1 needs its Activity filled in; supply it. 0

---

# maps each entry to its Activity
Species on record: Mus musculus
Assay: Compound was evaluated for antihelminthic activity in the diet against Nematospiroides dubius in mice at a concentration 0.1%
Assay type: functional
Please give a number only; it is taken to be in %.

The examples below pair each entry with its known result.
CSc1nc(-c2ccccc2)no1    94
c1ccc2[nH]c(-c3cscn3)nc2c1    100
Clc1ccc(-c2ncon2)cc1    100
S=C=Nc1ccc(-c2ncon2)cc1    100

# input for lookup
State its Activity: CCCCCCCCCCCc1nc(N)no1 70

---

Assay: Anthelmintic activity against Nematospiroides dubius when the dose was administered orally in mouse.
Assay type: functional
Set-up: concentration or dose not given beside the values
List of Activity values.
Unit % implied. Number only.

Solved entries:
S=C=Nc1ccc(-c2noc(C34CC5CC(CC(C5)C3)C4)n2)cc1    0
C(=C\c1cccs1)/c1noc(/C=C/c2cccs2)n1    0
S=C=Nc1ccc(-c2nc(-c3ccco3)no2)c(Cl)c1    0
Nc1ccc(-c2nc(-c3ccco3)no2)c(Cl)c1    0
O=C(Nc1cc(-c2nc(-c3ccco3)no2)ccc1Cl)Oc1ccccc1    0
Nc1ccc(-c2nc(-c3ccc(F)cc3)no2)cc1    18
COC(=O)Nc1ccc(-c2nc(-c3ccco3)no2)c(Cl)c1    0
S=C=Nc1cc(-c2nc(-c3ccco3)no2)ccc1Cl    0

The record that follows has no Activity shown yet.
# return recorded Activity for entry COc1cc(-c2nc(-c3ccc(N=C=S)cc3)no2)cc(OC)c1OC 0
